- METHOD DESCRIPTION: Acute toxicity, single oral administration (Test 1)
- COND: mouse, in vivo, fasting white mice, NMRI strain, Litchfield and Wilcoxon
Quick reference: LD50 of the listed items.
Note: unit mg/kg is implicit; provide only the numeric part.

These solved cases illustrate the format of a correct answer.
COMPOUND: COc1cc(C)ccc1OCCN1CCN(CCCC(=O)c2ccc(F)cc2)CC1.Cl.Cl [Substance 5]
LD50 (mg/kg): 458
//
COMPOUND: Cl.Cl.N#Cc1ccc(OCCN2CCN(CCCC(=O)c3ccc(F)cc3)CC2)cc1 [Substance 1]
LD50 (mg/kg): 215
//
COMPOUND: Cl.Cl.O=C(CCCN1CCN(CCSc2ccc([N+](=O)[O-])cc2)CC1)c1ccc(F)cc1 [Substance 8]
LD50 (mg/kg): 499
//
COMPOUND: CS(=O)(=O)c1ccc(OCCN2CCN(CCCC(=O)c3ccc(F)cc3)CC2)cc1.Cl.Cl [Substance 7]
LD50 (mg/kg): 825
//
COMPOUND: Cc1ccc(OCCN2CCN(CCCC(=O)c3ccc(F)cc3)CC2)c([N+](=O)[O-])c1.Cl.Cl [Substance 4]
LD50 (mg/kg): 1720

// moving on: another record for LD50
Data request: Would you mind telling me what LD50 value was observed for CCC(=O)c1ccc(OCCN2CCN(CCCC(=O)c3ccc(F)cc3)CC2)c(Cl)c1.Cl.Cl [Substance 3] ?
Data returned: 860
